target: glucosylceramide synthase (GCS) (Homo sapiens); construct: The obtained supernatant was used; experiment: GCS enzyme inhibition assay (A549 cell lysate, NBD C6-ceramide, HPLC fluorescence); conditions: inhibitory activity against GCS, 37° C., 90 minutes
Sequence (Q16739 whole entry): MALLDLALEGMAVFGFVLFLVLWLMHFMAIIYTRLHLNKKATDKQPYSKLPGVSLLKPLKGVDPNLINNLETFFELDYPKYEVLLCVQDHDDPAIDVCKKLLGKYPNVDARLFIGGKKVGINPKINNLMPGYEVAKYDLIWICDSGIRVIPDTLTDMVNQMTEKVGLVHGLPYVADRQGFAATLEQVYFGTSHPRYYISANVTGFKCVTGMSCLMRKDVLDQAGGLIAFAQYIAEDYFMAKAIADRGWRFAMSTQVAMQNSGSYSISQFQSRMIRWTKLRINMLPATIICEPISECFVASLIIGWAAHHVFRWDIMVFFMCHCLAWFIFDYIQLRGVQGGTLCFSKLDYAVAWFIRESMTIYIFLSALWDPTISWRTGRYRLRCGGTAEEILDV
Experimental endpoint: pIC50
Here pIC50 is given on a logarithmic scale as minus log10 of the concentration in mol/L.

Compound: Cn1ncc2ccc(-c3ccc4c(c3)OCC(C)(C)C4NC(=O)O[C@@H]3CN4CCC3CC4)cc21 (stereo partly shown)
Experimental endpoint: pIC50
Observed value: 8.90
//
Compound: CCOc1ccc(-c2ccc3c(c2)OCC(C)(C)C3NC(=O)O[C@@H]2CN3CCC2CC3)cc1C(F)(F)F (stereo partly shown)
Experimental endpoint: pIC50
Observed value: 9.01
//
Compound: COc1ccc(-c2cc3c(cc2OC)C(NC(=O)O[C@@H]2CN4CCC2CC4)C(C)(C)CO3)c(F)c1 (stereo partly shown)
Experimental endpoint: pIC50
Observed value: 9.26

For the next question, use this compound.
Fill in pIC50 for record O=C(NC1CCOc2cc(-c3ccc4nsnc4c3)ccc21)O[C@@H]1CN2CCC1CC2 (stereo partly shown)
8.99

====

system: GM1 production in Jurkat cells; assay: cells; type: cell-based; settings: Homo sapiens, Jurkat, 72 h
Experimental endpoint: IC50 (nM)
Answer with a number only, understood to be in nM.

Compound: CC1(C)COc2cc(-c3ccc4c(c3)OCCO4)ccc2C1NC(=O)O[C@@H]1CN2CCC1CC2 (stereo partly shown) [Example 172]
IC50 (nM): 1.92
//
Compound: CC1(C)COc2cc(/C=C/c3ccc(F)cc3F)ccc2C1NC(=O)O[C@@H]1CN2CCC1CC2 (stereo partly shown) [Example 286]
IC50 (nM): 3.3
//
Compound: CCOc1ccccc1-c1ccc2c(c1)OCCC2NC(=O)O[C@@H]1CN2CCC1CC2 (stereo partly shown) [Example 20]
IC50 (nM): 19.1
//
Compound: CC(C)c1ccc(-c2ccc3c(c2)OCCC3NC(=O)O[C@@H]2CN3CCC2CC3)cc1 (stereo partly shown) [Example 24]
IC50 (nM): 10.7
//
Compound: C=CCc1ccccc1-c1ccc2c(c1)OCC(C)(C)C2NC(=O)O[C@@H]1CN2CCC1CC2 (stereo partly shown) [Example 279]
IC50 (nM): 6.2
//
Compound: COc1cccc(-c2ccc3c(c2)OCC(C)(C)C3NC(=O)O[C@@H]2CN3CCC2CC3)n1 (stereo partly shown) [Example 246]
IC50 (nM): 1.3
//
Compound: COc1cc(F)c(-c2ccc3c(c2)OCC(C)(C)C3NC(=O)O[C@@H]2CN3CCC2CC3)cc1F (stereo partly shown) [Example 123]
IC50 (nM): 4.24
//
Compound: CCc1ccc(-c2ccc3c(c2)OCC(C)(C)C3NC(=O)O[C@@H]2CN3CCC2CC3)cc1 (stereo partly shown) [Example 273]
IC50 (nM): 2.9

Fill in IC50 for record CC1(C)COc2cc(-c3ccc(C(F)(F)F)cc3F)ccc2C1NC(=O)O[C@@H]1CN2CCC1CC2 (stereo partly shown) [Example 262]
3.7

Fill in IC50 for record CC1(C)COc2cc(-c3ccc(F)cc3)c(F)cc2C1NC(=O)O[C@@H]1CN2CCC1CC2 (stereo partly shown) [Example 331]
3.7

====

system: GM1 production in Jurkat cells; test: cells; type: cell-based; settings: Homo sapiens, Jurkat, 72 h
Experimental endpoint: IC50 (nM)
Answer with a number only, understood to be in nM.

Below are worked cases with known answers.
Compound: CC(C)c1cccc(-c2ccc3c(c2)OCCC3NC(=O)O[C@@H]2CN3CCC2CC3)c1 (stereo partly shown)
Observed value: 0.57
--
Compound: CCCCc1ccc(-c2cc3c(cc2OC)C(NC(=O)O[C@@H]2CN4CCC2CC4)C(C)(C)CO3)cc1 (stereo partly shown)
Observed value: 0.7
--
Compound: COc1ccc(-c2ccc3c(c2)OCC(C)(C)C3NC(=O)O[C@@H]2CN3CCC2CC3)c(Cl)c1 (stereo partly shown)
Observed value: 1.25

Give reported IC50 for CCCCOc1cccc(F)c1-c1ccc2c(c1)OCC(C)(C)C2NC(=O)O[C@@H]1CN2CCC1CC2 (stereo partly shown) (GM1 production in Jurkat cells)
1.46
